Tested on: MOLT-4
Test: NCI tumour cell line growth inhibition, 48 h
Activity calls are given as the source filed them. Cut-off read from the data, not from the text of the source: active = GI50 up to about 1.1 µM and inactive = higher.
QUANTITY MEASURED: GI50

Cc1c(/C=N/NC(=O)c2ccccc2)c(=O)n(-c2ccccc2)n1C: > 100 µM (inactive)
CCC12CCCN3CCc4c(n(c5ccccc45)C(O)(C(=O)OC)C1)C32 (stereo not given): > 100 µM (inactive)
O=[N+]([O-])c1ccc2ncccc2c1CCc1c([N+](=O)[O-])ccc2ncccc12: > 100 µM (inactive)

Now take the following molecule into account.
Enter reported GI50 observed with MOLT-4 for `COCOc1cc(OC)ccc1C/C(=N/O)C(=O)OC`
> 100 µM (inactive)

* * *

Tested on: HCT-116
Assay: NCI tumour cell line growth inhibition, 48 h
Active and inactive are the calls of the source. No stated cut-off is given here; in the data, active = GI50 up to about 1.1 µM and inactive = higher.
One label from this list, please: active, inactive

Look over these answered cases.
O=c1/c(=C/c2ccccc2F)sc2nc3ccccc3n12: inactive
CC1OC2=N[C@@H]1C(=O)N[C@@H](Cc1ccccc1)C1=N[C@H](C(=O)N[C@@H](Cc3ccccc3)C3=N[C@H](C(=O)N[C@H]2Cc2ccccc2)C(C)O3)C(C)O1 (stereo not given in full): inactive
C1CSCCCSCCCSCCCSCCCSCCCSCCCSCCCSC1: inactive

Would you mind telling me which call this test gave `Cc1cc(=O)nc(Sc2ccc([N+](=O)[O-])cc2[N+](=O)[O-])[nH]1` ?
inactive

Do the same for `OCCCCOC(c1ccccc1)(c1ccccc1)c1ccccc1` please
inactive

Do the same for `COc1cc(/C=C2\[C@H]3c4c(c(OC)c(C)c(OC)c4OC)C[C@@H](C(=O)N2Cc2ccccc2)N3C(=O)OCC(C)C)c(OC)c(C)c1OC` please
inactive

Do the same for `Cc1cccc2nc3c(C(=O)NCCN(C)C)cccc3cc12` please
active

Do the same for C=CCN1CCC(c2cc(C(=O)OCC)[nH]c2-c2cc(C)no2)C1=O (stereo not given) please
inactive

Do the same for CCOC(=O)N/N=C/C1=NN(C(=O)OCC)[S+]([O-])C1C (stereo not given) please
inactive

Do the same for `O=C1C2=C(C3=NCCc4c[nH]c1c43)c1c(Br)cc(Br)cc1CCN2` please
inactive

* * *

Test system: IGROV-1
Test: NCI tumour cell line growth inhibition, 48 h
The source made the active and inactive calls. Rule as the data show it: active = GI50 up to about 1.1 µM and inactive = higher.
QUANTITY MEASURED: GI50

The following compounds have reported results that may help.
O=[N+]([O-])c1ccc(/C=N/n2c(S)nnc2CCc2nnc(S)n2/N=C/c2ccc([N+](=O)[O-])o2)o1: 44.3 µM (inactive)
CCOC(=O)/C(=C\c1ccc(C#N)cc1)C(C)=O: 16.8 µM (inactive)
C[n+]1c(Cl)cn2c3nc4ccccc4nc3c([O-])c(C#N)c21: > 100 µM (inactive)
CN(c1ccc(Cl)cc1)S(=O)(=O)c1cccc([N+](=O)[O-])c1: > 100 µM (inactive)
COc1ccc(-n2cnc3c(NC(C)(C)C(=O)O)ncnc32)cc1: > 100 µM (inactive)
CCc1cc(Cc2ccc(C)c(NC(=O)C(=O)C3C(=O)NC(=O)NC3=O)c2CC)cc(C)c1NC(=O)C(=O)C1C(=O)NC(=O)NC1=O: > 100 µM (inactive)
O=C1N/C(=N/N=C\C(O)C(O)C(O)C(O)CO)N/C1=C\c1ccc(Cl)cc1 (stereo not given): 12.4 µM (inactive)
O=C1C2=C(C3=NCCc4c[nH]c1c43)c1c(Br)cc(Br)cc1CCN2: 4.06 µM (inactive)

So what's the measured GI50 for this one? CCCCC(C(=O)CCC(=O)Nc1ccc(Cl)c(Cl)c1)C(=O)C(C)C (stereo not given)
> 100 µM (inactive)

Do the same for `COc1ccc(NCc2c(O)ccc3ccccc23)cc1` please
20.4 µM (inactive)

Reference source: ChEMBL document CHEMBL1201862
